pKd values, listed per item
Molecular target: T1, cynomolgus IL-17A (cynomolgus, UniProt Q16552 24-155 (human entry), limits assumed)
T1 construct: also called cyno IL-17A; cynoIL-17A
T1 chain: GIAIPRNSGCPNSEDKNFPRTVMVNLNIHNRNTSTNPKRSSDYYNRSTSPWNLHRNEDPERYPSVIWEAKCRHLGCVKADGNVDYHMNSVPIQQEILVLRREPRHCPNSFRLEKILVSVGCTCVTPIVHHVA
Test: SPR Biacore 3000, antibody captured, IL-17 in solution
pKd: −log10 of the molar value.
ENDPOINT: pKd

[[record]]
binder = "mAb5548 (antibody, human IgG1, lambda, V domains shown, Framework-engineered mAb) VH: QVQLLESGGGLVQPGGSLRLSCAASGFTFSSYAMSWVRQAPGKGLEWVSTISLTSGFTYYADSVKGRFTISRDNSKNTLYLQMNSLRAEDTAVYYCARQLTLDVWGQGTLVTVSS VL: QSVLTQPPSVSVAPGQTARISCSGDNLGDKYANWYQQKPGQAPVLVIYDDIDRPSGIPERFSGSNSGNTATLTISGTQAEDEADYYCGSYDFFLGLIVFGGGTKLTVLG"
measured_number = 9.65

[[record]]
binder = "mAb7146 (antibody, human IgG1, lambda, V domains shown, Framework-engineered mAb; also called engineered form of MOR8160) VH: QVQLLESGGGLVQPGGSLRLSCAASGFTFSSYAMSWVRQAPGKGLEWVSTISMTSGFTYYADSVKGRFTISRDNSKNTLYLQMNSLRAEDTAVYYCARQLTLDVWGQGTLVTVSS VL: QSVLTQPPSVSVAPGQTARISCSGDNLGDKYANWYQQKPGQAPVLVIYDDIDRPSGIPERFSGSNSGNTATLTISGTQAEDEADYYCGSYDFFLGLIVFGGGTKLTVLG"
measured_number = 10.30

[[record]]
binder = "mAb1926 (antibody, human IgG1, lambda, V domains shown, Framework-engineered mAb; also called mAbtr1926; engineered form of MOR7700) VH: QVQLLESGGGLVQPGGSLRLSCAASGFTFSSYAMSWVRQAPGKGLEWVSTISMTSGFTYYADSVKGRFTISRDNSKNTLYLQMNSLRAEDTAVYYCARQLMLDVWGQGTLVTVSS VL: QSVLTQPPSVSVAPGQTARISCSGDNLGDKYANWYQQKPGQAPVLVIYDDIDRPSGIPERFSGSNSGNTATLTISGTQAEDEADYYCGSYDFFLGMIVFGGGTKLTVLG"
measured_number = 10.74

[[record]]
binder = "mAb6785 (antibody, human IgG1, lambda, V domains shown, Framework-engineered mAb; also called engineered form of MOR8302) VH: QVQLLESGGGLVQPGGSLRLSCAASGFTFSSYAMSWVRQAPGKGLEWVSTISLTSGFTYYADSVKGRFTISRDNSKNTLYLQMNSLRAEDTAVYYCARQLTLDVWGQGTLVTVSS VL: QSVLTQPPSVSVAPGQTARISCSGDNLGDKYANWYQQKPGQAPVLVIYDDIDRPSGIPERFSGSNSGNTATLTISGTQAEDEADYYCGSYDFFLGMIVFGGGTKLTVLG"
measured_number = 9.83

